A short record of pIC50 observed with Cholecystokinin receptor type A (Rattus norvegicus, UniProt P30551) follows.
Kindly note that pIC50 refers to -log10 of the concentration in mol/L and answer with the value alone.

Given the molecule COC(=O)c1cccc(NC(=O)N[C@@H]2N=C(c3ccccc3)c3ccccc3N(C)C2=O)c1 , what is its reported pIC50?
5.92

Given the molecule CN1C(=O)C(NC(N)=O)N=C(c2ccccc2)c2ccccc21 (racemic) , what is its reported pIC50?
4.26

Given the molecule CN1C(=O)C(NC(=O)Nc2cccc3ccccc23)N=C(c2ccccc2)c2ccccc21 (racemic) , what is its reported pIC50?
7.17

Given the molecule Cc1cccc(NC(=O)NC2N=C(c3ccccc3)c3ccccc3N(Cc3n[nH]c(C)n3)C2=O)c1 (racemic) , what is its reported pIC50?
6.25

Given the molecule CCN(CC)CC(=O)OCCN1C(=O)C(NC(=O)Nc2cccc(C)c2)N=C(c2ccccc2)c2ccccc21 (racemic) , what is its reported pIC50?
6.72

Given the molecule CN1C(=O)[C@H](NC(=O)Nc2cccc(I)c2)N=C(c2ccccc2)c2ccccc21 , what is its reported pIC50?
6.10

Given the molecule COC(=O)[C@H]1CCCN1OC(=O)CN1C(=O)C(NC(=O)Nc2cccc(OC)c2)N=C(c2ccccc2)c2ccccc21 (mixture of isomers) , what is its reported pIC50?
5.85

Given the molecule CC(=O)c1cccc(NC(=O)NC2N=C(c3ccccc3)c3ccccc3N(C)C2=O)c1 (configuration not stated) , what is its reported pIC50?
5.89

Given the molecule Cc1cccc(NC(=O)NC2N=C(c3ccccc3)c3ccccc3N(CC(=O)Nc3ccncc3)C2=O)c1 (racemic) , what is its reported pIC50?
5.96

Given the molecule CN1C(=O)C(NC(=O)Nc2cccc(C#N)c2)N=C(c2ccccc2)c2ccccc21 (configuration not stated) , what is its reported pIC50?
5.51

Given the molecule Cc1cc(C)cc(NC(=O)NC2N=C(c3ccccc3)c3ccccc3N(C)C2=O)c1 (configuration not stated) , what is its reported pIC50?
6.14

Given the molecule COC(=O)Cc1cccc(NC(=O)NC2N=C(c3ccccc3)c3ccccc3N(C)C2=O)c1 (configuration not stated) , what is its reported pIC50?
5.68

Given the molecule Cc1cccc(NC(=O)NC2N=C(c3ccccc3)c3ccccc3N(CCN(C)C)C2=O)c1 (racemic) , what is its reported pIC50?
5.72

Given the molecule CN1C(=O)C(NC(=O)Nc2ccc(Cl)cc2)N=C(c2ccccc2)c2ccccc21 (racemic) , what is its reported pIC50?
5.92

Given the molecule CCOC(=O)CN1C(=O)C(NC(=O)N[C@@H](C)c2ccccc2)N=C(c2ccccc2)c2ccccc21 (mixture of isomers) , what is its reported pIC50?
5.32

Given the molecule Cc1cccc(NC(=O)NC2N=C(c3ccccc3)c3ccncc3N(C)C2=O)c1 (racemic) , what is its reported pIC50?
6.84

Given the molecule CN1C(=O)C(NC(=O)Nc2ccc(N)nc2)N=C(c2ccccc2)c2ccccc21 (configuration not stated) , what is its reported pIC50?
5.52

----------
# Organism: Cavia porcellus
# experiment.notes: Selectivity ratio between CCK-B and CCK-A receptor
# Parameters: reference not given here
Checkbox rule: Selectivity ratio lower than 1 = satisfied; Selectivity ratio not lower than 1 = not satisfied.

State whether 1 exceeds Selectivity ratio recorded for CN1C(=O)C(NC(=O)Nc2ccc(F)cc2)N=C(c2ccccc2)c2ccccc21 (configuration not stated) .
satisfied

State whether 1 exceeds Selectivity ratio recorded for COc1cccc(NC(=O)NC2N=C(c3ccccc3)c3ccccc3N(CC[N+](C)(C)C)C2=O)c1 (racemic) .
not satisfied

State whether 1 exceeds Selectivity ratio recorded for CCOC(=O)CN1C(=O)C(NC(=O)Nc2ccc(Cl)cc2)N=C(c2ccccc2)c2ccccc21 (racemic) .
not satisfied

State whether 1 exceeds Selectivity ratio recorded for CN1C(=O)C(NC(=O)Nc2ccc3c(c2)OCO3)N=C(c2ccccc2)c2ccccc21 (configuration not stated) .
not satisfied

State whether 1 exceeds Selectivity ratio recorded for CN1C(=O)C(NC(=O)NCc2ccccc2)N=C(c2ccccc2)c2ccccc21 (racemic) .
satisfied

State whether 1 exceeds Selectivity ratio recorded for CN1C(=O)C(NC(=O)Nc2ccc(C(F)(F)F)cc2)N=C(c2ccccc2)c2ccccc21 (configuration not stated) .
not satisfied

State whether 1 exceeds Selectivity ratio recorded for O=C(Nc1ccc(Cl)cc1)NC1N=C(c2ccccc2)c2ccccc2N(C[C@@H](O)CO)C1=O (mixture of isomers) .
not satisfied

State whether 1 exceeds Selectivity ratio recorded for CCN(CC)C(=O)CN1C(=O)C(NC(=O)Nc2cccc(OC)c2)N=C(c2ccccc2)c2ccccc21 (racemic) .
not satisfied

State whether 1 exceeds Selectivity ratio recorded for CN1C(=O)C(NC(=O)Nc2cccc3ccccc23)N=C(c2ccccc2)c2ccccc21 (racemic) .
satisfied

State whether 1 exceeds Selectivity ratio recorded for CCOC(=O)CN1C(=O)C(NC(=O)c2ccccc2Cl)N=C(c2ccccc2F)c2ccccc21 (racemic) .
not satisfied

State whether 1 exceeds Selectivity ratio recorded for CN1C(=O)C(NC(=O)Nc2cccc(C(=O)O)c2)N=C(c2ccccc2)c2ccccc21 (racemic) .
not satisfied

State whether 1 exceeds Selectivity ratio recorded for COc1ccc(NC(=O)NC2N=C(c3ccccc3)c3ccccc3N(C)C2=O)cc1 (racemic) .
not satisfied

State whether 1 exceeds Selectivity ratio recorded for Cc1cccc(NC(=O)NC2N=C(c3ccccc3)c3ccccc3N(CC(=O)Nc3ccncc3)C2=O)c1 (racemic) .
not satisfied

State whether 1 exceeds Selectivity ratio recorded for C=Cc1cccc(NC(=O)N[C@@H]2N=C(c3ccccc3)c3ccccc3N(C)C2=O)c1 .
not satisfied

State whether 1 exceeds Selectivity ratio recorded for CCOC(=O)CCN1C(=O)C(NC(=O)Nc2ccc(Cl)cc2)N=C(c2ccccc2)c2ccccc21 (racemic) .
not satisfied

State whether 1 exceeds Selectivity ratio recorded for CN1C(=O)C(NC(=O)NC(C)(C)C)N=C(c2ccccc2)c2ccccc21 (racemic) .
satisfied

----------
# experiment.notes: Bioavailability in rat after 30 minutes at an oral dose of 2.5 mg/kg
# Assay type: ADME, organism-based
# assay.context: plasma
The label depends only on concentration at 0.5 h: 1.0 if it is at least 100 ng/mL, 0.0 if it is smaller.

Does the reported concentration at 0.5 h for Cc1cccc(NC(=O)NC2N=C(c3ccccc3)c3ccccc3N(CCN(C)C)C2=O)c1 (racemic) fall at or above the 100 ng/mL mark?
0.0

Does the reported concentration at 0.5 h for CN1C(=O)C(NC(=O)Nc2cccc(C(F)(F)F)c2)N=C(c2ccccc2)c2ccccc21 (stereo not given) fall at or above the 100 ng/mL mark?
1.0

Does the reported concentration at 0.5 h for Cc1cccc(NC(=O)NC2N=C(c3ccccc3)c3ccccc3N(CCO)C2=O)c1 (racemic) fall at or above the 100 ng/mL mark?
1.0

Does the reported concentration at 0.5 h for Cc1cccc(NC(=O)N[C@@H]2N=C(c3ccccc3)c3ccccc3N(C)C2=O)c1 fall at or above the 100 ng/mL mark?
1.0

Does the reported concentration at 0.5 h for Cc1cccc(NC(=O)NC2N=C(c3cccnc3)c3ccccc3N(C)C2=O)c1 (racemic) fall at or above the 100 ng/mL mark?
1.0

----------
# Species on record: Cavia porcellus
# experiment.notes: Selectivity ratio between CCK-B and CCK-A receptor
# Parameters: reference not given here
What Selectivity ratio was measured for each of the following?
Answer as a number with no unit attached.

Given the compound COc1cccc(NC(=O)NC2N=C(c3ccccc3)c3ccccc3N(CC(=O)N3CCN(C)CC3)C2=O)c1 (racemic) , what is its reported Selectivity ratio?
318

Given the compound CN1C(=O)[C@H](NC(=O)c2ccc(C(F)(F)F)cc2)N=C(c2ccccc2)c2ccccc21 , what is its reported Selectivity ratio?
35

Given the compound COC(=O)[C@H]1CCCN1OC(=O)CN1C(=O)C(NC(=O)Nc2cccc(OC)c2)N=C(c2ccccc2)c2ccccc21 (mixture of isomers) , what is its reported Selectivity ratio?
144

----------
# subject.of.test: UniProt:P30551
# Sequence (P30551 whole entry): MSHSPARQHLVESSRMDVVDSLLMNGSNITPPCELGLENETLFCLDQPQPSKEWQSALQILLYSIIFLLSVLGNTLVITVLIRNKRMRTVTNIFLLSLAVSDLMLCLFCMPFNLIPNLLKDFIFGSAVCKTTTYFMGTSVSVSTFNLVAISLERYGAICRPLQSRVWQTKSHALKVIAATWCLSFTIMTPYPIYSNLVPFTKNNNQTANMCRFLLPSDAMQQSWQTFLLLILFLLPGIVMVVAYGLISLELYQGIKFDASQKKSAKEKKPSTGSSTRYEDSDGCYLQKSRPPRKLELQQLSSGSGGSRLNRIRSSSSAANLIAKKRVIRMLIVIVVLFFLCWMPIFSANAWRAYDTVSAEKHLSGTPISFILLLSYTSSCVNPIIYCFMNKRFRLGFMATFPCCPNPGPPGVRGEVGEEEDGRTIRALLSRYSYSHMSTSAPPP
What IC50 was measured for each of the following?
The answer is to be given in nM; state only the numeric part.

Given the compound CCOC(=O)CCN1C(=O)C(NC(=O)Nc2cccc(OC)c2)N=C(c2ccccc2)c2ccccc21 (racemic) , what is its reported IC50?
340

Given the compound COc1cccc(NC(=O)NC2N=C(c3ccccc3)c3ccccc3N(CCC(=O)O)C2=O)c1 (racemic) , what is its reported IC50?
9

Given the compound O=C(Nc1ccc(Cl)cc1)NC1N=C(c2ccccc2)c2ccccc2N(CC(=O)N2CCCC2)C1=O (racemic) , what is its reported IC50?
1000

Given the compound CN1C(=O)[C@H](NC(=O)Nc2cccc(N)c2)N=C(c2ccccc2)c2ccccc21 , what is its reported IC50?
4330
